SYSTEM_UNDER_TEST: Somatostatin receptor type 2 (Homo sapiens, UniProt P30874)
Sequence (P30874 whole entry): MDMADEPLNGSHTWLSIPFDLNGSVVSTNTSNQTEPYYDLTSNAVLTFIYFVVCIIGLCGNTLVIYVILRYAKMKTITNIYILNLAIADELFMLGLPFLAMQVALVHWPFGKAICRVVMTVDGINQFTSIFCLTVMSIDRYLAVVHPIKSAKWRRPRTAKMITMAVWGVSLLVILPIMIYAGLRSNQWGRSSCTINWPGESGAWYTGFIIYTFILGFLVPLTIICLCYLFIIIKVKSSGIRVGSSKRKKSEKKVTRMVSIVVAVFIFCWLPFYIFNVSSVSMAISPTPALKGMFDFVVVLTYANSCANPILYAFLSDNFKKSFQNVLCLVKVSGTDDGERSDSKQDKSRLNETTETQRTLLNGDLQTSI
TEST_PROTOCOL: Inhibition of [125 I -Tyr]SRIF-14 binding to membranes isolated from CHO-K1 cells expressing cloned human SRIF receptor (sst-2) subtype
Assay type: cell membranes
MEASURED_PARAMETER: Ki

Missing value: Ki, Somatostatin receptor type 2 (Homo sapiens, UniProt P30874), entry CCCCC1(CCCC)N[C@@H](c2nc(-c3ccccc3)c[nH]2)Cc2c1[nH]c1ccccc21 . Fill in?
> 10 µM

Further cases:
Missing value: Ki, Somatostatin receptor type 2 (Homo sapiens, UniProt P30874), entry CCCCCC1(CCCCC)N[C@H](c2nc(-c3ccccc3)c[nH]2)Cc2c1[nH]c1ccccc21 . Fill in?
> 10 µM

Missing value: Ki, Somatostatin receptor type 2 (Homo sapiens, UniProt P30874), entry c1ccc(-c2c[nH]c(C3Cc4c([nH]c5ccccc45)C(C4CCCCC4)N3)n2)cc1 (stereo not given) . Fill in?
> 10 µM

Missing value: Ki, Somatostatin receptor type 2 (Homo sapiens, UniProt P30874), entry CC1(C2CCCCC2)N[C@H](c2nc(-c3ccccc3)c[nH]2)Cc2c1[nH]c1ccccc21 (stereo not given in full) . Fill in?
> 10 µM

Missing value: Ki, Somatostatin receptor type 2 (Homo sapiens, UniProt P30874), entry CCCCC1(CCCC)N[C@H](c2nc(-c3ccccc3)c[nH]2)Cc2c1[nH]c1ccccc21 . Fill in?
> 10 µM

====

Listed compounds paired with reported pKi
SYSTEM_UNDER_TEST: Somatostatin receptor type 4 (Homo sapiens)
Sequence (P31391 whole entry): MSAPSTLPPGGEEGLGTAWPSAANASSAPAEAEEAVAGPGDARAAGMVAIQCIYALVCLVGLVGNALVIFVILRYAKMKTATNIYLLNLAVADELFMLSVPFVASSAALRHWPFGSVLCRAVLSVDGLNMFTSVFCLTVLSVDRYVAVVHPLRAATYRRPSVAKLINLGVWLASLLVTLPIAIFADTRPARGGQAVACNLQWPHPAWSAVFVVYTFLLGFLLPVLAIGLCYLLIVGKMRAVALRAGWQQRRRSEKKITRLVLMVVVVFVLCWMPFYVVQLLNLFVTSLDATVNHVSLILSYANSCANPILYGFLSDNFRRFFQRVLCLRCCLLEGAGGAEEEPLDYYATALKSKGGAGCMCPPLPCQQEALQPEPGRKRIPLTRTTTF
TEST_PROTOCOL: Inhibition of [125 I -Tyr]SRIF-14 binding to membranes isolated from CHO-K1 cells expressing cloned human SRIF receptor (sst-4) subtype
Quick note: pKi values are minus log10 of concentrations in mol/L.

Which pKi is listed for CCCCC1(CCCC)N[C@@H](c2nc(-c3ccccc3)c[nH]2)Cc2c1[nH]c1ccccc21 ?
5.15

Could you now consider this next compound?
Which pKi is listed for CCCCC1(CCCC)N[C@H](c2nc(-c3ccccc3)c[nH]2)Cc2c1[nH]c1ccccc21 ?
5.01

====

SYSTEM_UNDER_TEST: Somatostatin receptor type 3 (Homo sapiens, UniProt P32745)
Sequence (P32745 whole entry): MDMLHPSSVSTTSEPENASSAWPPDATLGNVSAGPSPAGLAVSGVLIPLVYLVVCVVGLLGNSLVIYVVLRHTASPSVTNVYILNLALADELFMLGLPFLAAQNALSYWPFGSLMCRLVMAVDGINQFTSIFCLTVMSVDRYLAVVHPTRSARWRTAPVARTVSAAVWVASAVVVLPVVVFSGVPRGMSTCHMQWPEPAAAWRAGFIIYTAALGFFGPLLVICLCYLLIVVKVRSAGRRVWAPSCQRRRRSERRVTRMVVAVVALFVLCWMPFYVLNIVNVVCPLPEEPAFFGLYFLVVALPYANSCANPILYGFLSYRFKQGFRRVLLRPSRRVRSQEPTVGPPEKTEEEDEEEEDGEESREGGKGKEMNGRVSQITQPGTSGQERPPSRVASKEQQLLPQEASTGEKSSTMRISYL
TEST_PROTOCOL: Inhibition of [125 I -Tyr]SRIF-14 binding to membranes isolated from CHO-K1 cells expressing cloned human SRIF receptor (sst-3) subtype
Listed compounds paired with reported Ki
Kindly provide the numeric value in µM only, without the unit symbol.

For orientation, consider the following solved cases.
Which Ki is listed for CCCCC1(CCCC)N[C@@H](c2nc(-c3ccccc3)c[nH]2)Cc2c1sc1ccccc21 ?
0.43

Which Ki is listed for CC1(C2CCCCC2)N[C@H](c2nc(-c3ccccc3)c[nH]2)Cc2c1[nH]c1ccccc21 (some centres undefined) ?
0.0009

Which Ki is listed for O=[N+]([O-])c1ccccc1C1N[C@H](c2nc(-c3ccccc3)c[nH]2)Cc2c1[nH]c1ccccc21 (some centres undefined) ?
0.2

Could you now consider this next compound?
Which Ki is listed for CC(=O)N1CCC2(CC1)N[C@@H](c1nc(-c3ccccc3)c[nH]1)Cc1c2[nH]c2ccccc12 ?
0.071

====

Listed compounds paired with reported log10 of Ki
SYSTEM_UNDER_TEST: Somatostatin receptor type 3 (Homo sapiens, UniProt P32745)
TEST_PROTOCOL: Inhibition of [125 I -Tyr]SRIF-14 binding to membranes isolated from CHO-K1 cells expressing cloned human SRIF receptor (sst-3) subtype
Give log10 of Ki, with Ki taken in nM.

For orientation, consider the following solved cases.
Which log10 of Ki is listed for CCCCC1(CCCC)N[C@H](c2nc(-c3ccccc3)c[nH]2)Cc2c1[nH]c1ccccc21 ?
0.53

Which log10 of Ki is listed for CCCCCCC1(CCCCCC)N[C@H](c2nc(-c3ccccc3)c[nH]2)Cc2c1[nH]c1ccccc21 ?
1.45

Which log10 of Ki is listed for CCCCC1(CCCC)N[C@H](c2nc(-c3ccccc3)c(-c3ccccc3)[nH]2)Cc2c1[nH]c1ccccc21 ?
3.74

Which log10 of Ki is listed for CN(C)c1ccc(C2N[C@H](c3nc(-c4ccccc4)c[nH]3)Cc3c2[nH]c2ccccc32)cc1 (some centres undefined) ?
1.52

Which log10 of Ki is listed for c1ccc(-c2c[nH]c([C@@H]3Cc4c([nH]c5ccccc45)C4(Cc5ccccc5C4)N3)n2)cc1 ?
1.11

Which log10 of Ki is listed for c1ccc(-c2c[nH]c([C@@H]3Cc4c([nH]c5ccccc45)C(c4ccncc4)N3)n2)cc1 (some centres undefined) ?
2.51

Which log10 of Ki is listed for CCCCCC1N[C@H](c2nc(-c3ccccc3)c[nH]2)Cc2c1[nH]c1ccccc21 (some centres undefined) ?
1.04

Which log10 of Ki is listed for CCCCC1(CCCC)N[C@@H](c2nc(-c3ccccc3)c[nH]2)Cc2c1[nH]c1ccccc21 ?
-0.19

Could you now consider this next compound?
Which log10 of Ki is listed for CCC1(CC)N[C@H](c2nc(-c3ccccc3)c[nH]2)Cc2c1[nH]c1ccccc21 ?
1.04
